test system: A549 NSCLC; experiment: NCI tumour cell line growth inhibition, 48 h
experimental-readout: TGI

Some molecules with recorded TGI:
| molecule | TGI |
| --- | --- |
| O=C1c2ccccc2C(=O)N1[C@@H](Cc1ccccc1)C(=O)n1cccc1CO | > 100 µM |
| CC(=O)O[C@]1(C)CCC2C(C)C(=O)OC2C2C(C)[C@@H](O)CC21 (stereo not given in full) | > 100 µM |
| CC[C@H]1CC(=O)c2c(cc3c(c2O)C(=O)c2ccccc2C3=O)[C@@]1(C#N)C(=O)OC(C)(C)C | > 100 µM |
| Cn1c([N+](=O)[O-])cnc1/C=C1\Oc2ccc(Br)cc2C1=O | 5.2 µM |

Which TGI is reported for this molecule? `Clc1ccc(-c2nc3ccc(Cl)cc3[nH]2)cc1` > 100 µM
